# Assay details: refractive index (Na D-line) (dimensionless)
# Test context: 298.15 K; 101.33 kPa; Liquid; Standard Abbe refractometry
Recorded metric: refractive index

Query string: GET /values?readout=refractive index&item= `CC(C)(C)O`
Result string: 1.3851

Query string: GET /values?readout=refractive index&item= `CN1CCCC1=O`
Result string: 1.4674

Query string: GET /values?readout=refractive index&item= `CC(C)CO`
Result string: 1.3939

Query string: GET /values?readout=refractive index&item= CCC(C)O (stereo unspecified)
Result string: 1.3954

Query string: GET /values?readout=refractive index&item= `CC(C)O`
Result string: 1.375

Query string: GET /values?readout=refractive index&item= `CC(C)CCO`
Result string: 1.4053

====

# Test context: 298.15 K; 101.33 kPa; Liquid; Pycnometric method
Recorded metric: mass density (kg/m3)

Query string: GET /values?readout=mass density&item= `CN1CCCC1=O`
Result string: 1023.4

Query string: GET /values?readout=mass density&item= CCC(C)O (stereo unspecified)
Result string: 798.92

Query string: GET /values?readout=mass density&item= `CC(C)CO`
Result string: 794.34

Query string: GET /values?readout=mass density&item= `CC(C)O`
Result string: 776.88

Query string: GET /values?readout=mass density&item= `CC(C)(C)O`
Result string: 776.16

Query string: GET /values?readout=mass density&item= `CC(C)CCO`
Result string: 801.76
